target.or.system: WT-TTR (Homo sapiens, UniProt P02766)
Construct: made in house
measurement.notes: stagnant acid-mediated fibril formation assay (turbidity)
Type: biochemical
condition.description: inhibitor 3.6 μM, WT-TTR 3.6 μM, pH 4.4, 72 h
attribute.measured: inhibitor potency against fibril formation

// worked examples, inhibitor potency against fibril formation included
- given.smiles: "O=C(O)c1cccc2c1oc1c(C(=O)O)ccc(Nc3ccccc3F)c12"
  target.or.system: "WT-TTR (Homo sapiens, UniProt P02766)"
  val: "most potent"
- given.smiles: "O=C(O)c1cccc(Nc2ccc(C(=O)O)c3oc4c(C(=O)O)cccc4c23)c1"
  target.or.system: "WT-TTR (Homo sapiens, UniProt P02766)"
  val: "amongst the most potent"
- given.smiles: "O=C(O)c1cccc2c1oc1c(C(=O)O)ccc(-c3cc(Cl)cc(Cl)c3)c12"
  target.or.system: "WT-TTR (Homo sapiens, UniProt P02766)"
  val: "most potent"
- given.smiles: "O=C(O)c1cccc(-c2ccc(C(=O)O)c3oc4c(C(=O)O)cccc4c23)c1"
  target.or.system: "WT-TTR (Homo sapiens, UniProt P02766)"
  val: "amongst the most potent"

Here is another compound to look at.
Asked: # returns recorded inhibitor potency against fibril formation (system: WT-TTR (Homo sapiens, UniProt P02766)) for "O=C(O)c1cccc2c1oc1c(C(=O)O)ccc(-c3ccccc3F)c12"
Given back: most potent
